We begin with a simple list: items and their reported pIC50.
Tested on: photosynthetic electron transport (PET) in spinach chloroplasts
Experiment: Inhibition of photosynthetic electron transport (PET) in spinach chloroplasts
Type: biochemical, Spinacia oleracea L.
Settings: DCPIP photoreduction
pIC50: −log10 of the molar value.
assay.endpoint: pIC50

compound: COc1ccc(NC(=O)[C@@H](NC(=O)c2ccc(Cl)cc2O)C(C)C)cc1 [9j]
assay.endpoint: pIC50
observed.result: 4.45
//
compound: O=C(N[C@@H](Cc1ccccc1)C(=O)Nc1ccc(Br)cc1)c1cc(Cl)ccc1O [8u]
assay.endpoint: pIC50
observed.result: 4.51
//
compound: O=C(N[C@H](Cc1ccccc1)C(=O)Nc1ccc(Cl)cc1)c1ccc(Cl)cc1O [9f]
assay.endpoint: pIC50
observed.result: 4.63
//
compound: CC(C)[C@H](NC(=O)c1cc(Cl)ccc1O)C(=O)Nc1cccc(Cl)c1 [8d]
assay.endpoint: pIC50
observed.result: 4.86
//
compound: CC(C)[C@H](NC(=O)c1ccc(Cl)cc1O)C(=O)Nc1ccc(C(F)(F)F)cc1 [9h]
assay.endpoint: pIC50
observed.result: 4.85
//
compound: O=C(N[C@@H](Cc1ccccc1)C(=O)Nc1cccc(Cl)c1)c1cc(Cl)ccc1O [8f]
assay.endpoint: pIC50
observed.result: 4.91
//
compound: CC(C)[C@@H](NC(=O)c1cc(Cl)ccc1O)C(=O)Nc1cccc(Cl)c1 [8e]
assay.endpoint: pIC50
observed.result: 4.69
//
compound: O=C(N[C@H](Cc1ccccc1)C(=O)Nc1ccc(Cl)cc1)c1cc(Cl)ccc1O [8l]
assay.endpoint: pIC50
observed.result: 4.47

----------
System: Mycobacterium tuberculosis MTB CNCTC My 331/88
Experiment: In vitro antimycobacterial evaluation
Type: cell-based
Conditions: 14h, IC90 value
# key: entry, value: log10(MIC)
assay.endpoint: log10(MIC) (log10 of the value in µM)

structure.smiles: CC(C)[C@H](NC(=O)c1cc(Cl)ccc1O)C(=O)Nc1ccc(Br)cc1
tgt: Mycobacterium tuberculosis MTB CNCTC My 331/88
assay.endpoint: log10(MIC)
observed.result: 1.80

structure.smiles: O=C(N[C@@H](Cc1ccccc1)C(=O)Nc1ccc(Cl)cc1)c1cc(Cl)ccc1O
tgt: Mycobacterium tuberculosis MTB CNCTC My 331/88
assay.endpoint: log10(MIC)
observed.result: 1.20

structure.smiles: CC(C)[C@@H](NC(=O)c1cc(Cl)ccc1O)C(=O)Nc1ccc(Cl)cc1
tgt: Mycobacterium tuberculosis MTB CNCTC My 331/88
assay.endpoint: log10(MIC)
observed.result: 1.51

structure.smiles: CC(C)[C@@H](NC(=O)c1cc(Cl)ccc1O)C(=O)Nc1cccc(Cl)c1
tgt: Mycobacterium tuberculosis MTB CNCTC My 331/88
assay.endpoint: log10(MIC)
observed.result: 1.51

structure.smiles: O=C(CNC(=O)c1cc(Cl)ccc1O)Nc1cccc(Cl)c1
tgt: Mycobacterium tuberculosis MTB CNCTC My 331/88
assay.endpoint: log10(MIC)
observed.result: 2.10

structure.smiles: CC(C)[C@@H](NC(=O)c1cc(Cl)ccc1O)C(=O)Nc1ccc(Br)cc1
tgt: Mycobacterium tuberculosis MTB CNCTC My 331/88
assay.endpoint: log10(MIC)
observed.result: 1.80

structure.smiles: CC(C)[C@H](NC(=O)c1ccc(Cl)cc1O)C(=O)Nc1ccc(Cl)cc1
tgt: Mycobacterium tuberculosis MTB CNCTC My 331/88
assay.endpoint: log10(MIC)
observed.result: 1.80

structure.smiles: CC(C)[C@@H](NC(=O)c1cc(Cl)ccc1O)C(=O)Nc1ccc(Cl)c(Cl)c1
tgt: Mycobacterium tuberculosis MTB CNCTC My 331/88
assay.endpoint: log10(MIC)
observed.result: 1.20

structure.smiles: C[C@H](NC(=O)c1cc(Cl)ccc1O)C(=O)Nc1cccc(Cl)c1
tgt: Mycobacterium tuberculosis MTB CNCTC My 331/88
assay.endpoint: log10(MIC)
observed.result: 2.40

structure.smiles: C[C@H](NC(=O)c1ccc(Cl)cc1O)C(=O)Nc1ccc(Cl)cc1
tgt: Mycobacterium tuberculosis MTB CNCTC My 331/88
assay.endpoint: log10(MIC)
observed.result: 1.80
